# STUDY SYSTEM: T1, Human serum albumin (HSA) (human, UniProt P02768 25-609)
# T1 construct: also called human albumin; recombinant human albumin
# T1 sequence (P02768 25-609): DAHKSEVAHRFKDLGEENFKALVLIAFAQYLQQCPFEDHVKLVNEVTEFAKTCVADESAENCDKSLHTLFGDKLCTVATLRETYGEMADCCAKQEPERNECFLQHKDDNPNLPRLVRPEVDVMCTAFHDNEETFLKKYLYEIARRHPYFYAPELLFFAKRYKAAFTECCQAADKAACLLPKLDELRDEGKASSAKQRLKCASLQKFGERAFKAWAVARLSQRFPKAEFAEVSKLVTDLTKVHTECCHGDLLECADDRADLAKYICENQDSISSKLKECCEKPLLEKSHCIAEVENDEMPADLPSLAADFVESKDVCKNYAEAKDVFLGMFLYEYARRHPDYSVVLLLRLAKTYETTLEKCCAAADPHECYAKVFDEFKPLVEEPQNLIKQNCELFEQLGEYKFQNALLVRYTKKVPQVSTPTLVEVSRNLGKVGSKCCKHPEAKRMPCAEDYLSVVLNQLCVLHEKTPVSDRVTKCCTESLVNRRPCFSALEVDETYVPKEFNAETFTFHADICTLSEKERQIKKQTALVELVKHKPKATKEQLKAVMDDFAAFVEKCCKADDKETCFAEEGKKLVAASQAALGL
# METHOD DESCRIPTION: ELISA on coated human albumin, pH 5.5, HRP detection antibody, A450
PROPERTY NAME: EC50 (read off the curve)

In the examples that follow, each entry is paired with its recorded EC50 (read off the curve).
cx11558 (B10a.v2.1 VHH x hz4A01v51 VHH) (bispecific antibody) EVQLLESGGGEVQPGGSLRLSCAASGSIANVDLMAWHRQAPGKQREPIAVINDAGSTYYAESVKGRFTISRDNAKNTLYLQMNSLRAEDTAVYYCNTATWRGGERYADWGQGTLVTVKPGSGGGSEVQLVESGGGEVQPGGSLRLSCAASGFTFSTSGMVWVRQAPGKGLEWVSTISDDARITVYAESVKGRFTISRDNAKNTVYLQMNSLRAEDTAVYYCATYRAGSRIGSYEDYYRGQGTLVTVKPGG : ~0.06 nM
cx12008 (bispecific antibody, anti-FcRn VHH linked to anti-albumin VHH) single polypeptide, format of FIG. 5(i): EVQLLESGGGEVQPGGSLRLSCAASGSIANVDLMAWHRQAPGKQREPIAVINDAGSTYYAESVKGRFTISRDNAKNTLYLQMNSLRAEDTAVYYCNTATWRGGERYADWGQGTLVTVRPGSGGGSEVQLVESGGGEVQPGGSLRLSCAASGFTFSTSGMVWVRQAPGKGLEWVSTISDDARITVYAESVKGRFTISRDNAKNTVYLQMNSLRAEDTAVYYCATYRAGSRIGSYEDYYRGQGTLVTVRPGG : ~0.4 nM

Request: Tell me the measured EC50 (read off the curve) of cx12006 (bispecific antibody, anti-FcRn VHH linked to anti-albumin VHH) single polypeptide, format of FIG. 5(i): QVQLLESGGGKVQPGGSLRLSCAASGSIANVDLMAWHRQAPGKQREPIAVINDAGSTYYAESVKGRFTISRDNAKNTLYLQMNSLRAEDTAVYYCNTATWRGGERYADWGQGTLVTVEPGSGGGSQVQLLESGGGKVQPGGSLRLSCAASGFTFSTSGMVWVRQAPGKGLEWVSTISDDARITVYAESVKGRFTISRDNAKNTVYLQMNSLRAEDTAVYYCATYRAGSRIGSYEDYYRGQGTLVTVEPGG , please.
Response: ~0.4 nM

Request: Then this binder: cx12007 (B10a.v2.4 VHH x hz4A01v51.12 VHH) (bispecific antibody) EVQLLESGGGKVQPGGSLRLSCAASGSIANVDLMAWHRQAPGKQREPIAVINDAGSTYYAESVKGRFTISRDNAKNTLYLQMNSLRAEDTAVYYCNTATWRGGERYADWGQGTLVTVEPGSGGGSEVQLLESGGGKVQPGGSLRLSCAASGFTFSTSGMVWVRQAPGKGLEWVSTISDDARITVYAESVKGRFTISRDNAKNTVYLQMNSLRAEDTAVYYCATYRAGSRIGSYEDYYRGQGTLVTVEPGG
Response: ~0.4 nM
